The entries below come with measured Improvement over parental values attached.
Target: canine IL-4RA (construct not given) (canine)
Experiment: SPR, IL-4RA immobilised, periplasmic Fab
Kindly provide the numeric value in fold only, without the unit symbol.

Worked examples, 5 binders total:
FJ2246MP10E12 (Fab, V domains shown) VH: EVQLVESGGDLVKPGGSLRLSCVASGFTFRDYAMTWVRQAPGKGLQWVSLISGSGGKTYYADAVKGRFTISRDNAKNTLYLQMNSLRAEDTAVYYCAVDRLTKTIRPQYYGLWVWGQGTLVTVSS VL: DIVMTQTPLSLSVSPGETASISCRSSQSLLYSIGYNYLDWYLQKPGQSPQGLIYLGSKRASGVPDRFSGSGSGTDFTLRISRVEAEDTGVYYCMQGLQSPLSFGQGTKLEIK    2
FJ2246MP06E12 (Fab, V domains shown) VH: EVQLVESGGDLVKPGGSLRLSCVASGFTFRDYAMTWVRQAPGKGLQWVSLINGNGGKTYYADAVKGRFTISRDNAKNTLYLQMNSLRAEDTAVYYCAVDRLTKTIRPQYYGLWVWGQGTLVTVSS VL: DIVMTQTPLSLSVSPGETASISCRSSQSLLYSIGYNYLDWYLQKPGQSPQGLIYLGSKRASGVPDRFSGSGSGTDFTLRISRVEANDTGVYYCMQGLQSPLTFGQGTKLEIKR    2.9
FJ2246MP07A09 (Fab, V domains shown) VH: EVQLVESGGDLVKPGGSLRLSCVASGFTFRDYAMTWVRQAPGKGLQWVSLINGSGGKTYYADAVKGRFTISRDNAKNTLYLQMNSLRAEDTAVYYCAVDRLTKTIRPQYYGMWSWGQGTLVTVSS VL: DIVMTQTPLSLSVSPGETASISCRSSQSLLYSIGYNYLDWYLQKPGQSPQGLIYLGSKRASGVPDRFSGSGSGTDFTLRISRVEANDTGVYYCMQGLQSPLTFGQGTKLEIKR    4.2
FJ2246MP10G04 (Fab, V domains shown) VH: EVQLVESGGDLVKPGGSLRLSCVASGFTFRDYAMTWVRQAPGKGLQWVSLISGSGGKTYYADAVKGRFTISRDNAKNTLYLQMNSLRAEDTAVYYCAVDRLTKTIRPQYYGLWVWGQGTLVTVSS VL: DIVMTQTPLSLSVSPGETASISCRSSQSLLYSIGYNYLDWYLQKPGQSPQGLIYLGSKRASGVPDRFSGSGSGTDFTLRISRVEAEDTGVYYCMQGLQSPLSFGQGTKLEIK    2.1
FJ2246MP06G08 (Fab, V domains shown) VH: EVQLVESGGDLVKPGGSLRLSCVASGFTFRDYAMTWVRQAPGKGLQWVSLINGNGSKTYYADAVKGRFTISRDNAKNTLYLQMNSLRAEDTAVYYCAVDRLTKTIRPQYYGLWVWGQGTLVTVSS VL: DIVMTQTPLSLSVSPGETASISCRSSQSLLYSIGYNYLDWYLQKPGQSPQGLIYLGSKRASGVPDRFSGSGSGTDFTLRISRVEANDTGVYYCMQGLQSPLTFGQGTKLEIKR    3.1

Now let's try a different one.
Improvement over parental reading for FJ2246MP10A10 (Fab, V domains shown) VH: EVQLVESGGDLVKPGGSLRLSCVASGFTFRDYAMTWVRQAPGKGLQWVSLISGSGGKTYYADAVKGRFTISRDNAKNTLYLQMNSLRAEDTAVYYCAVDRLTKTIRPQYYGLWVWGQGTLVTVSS VL: DIVMTQTPLSLSVSPGETASISCRSSQSLLYSIGYNYLDWYLQKPGQSPQGLIYLGSKRASGVPDRFSGSGSGTDFTLRISRVEAEDTGVYYCMQGLHSPLTFGQGTKLEIK : 2.2
